Origin of measurements: paper PMC8899474

EXPERIMENTAL SYSTEM: hUGT1A1 (Homo sapiens)
Sequence (P22309 26-533): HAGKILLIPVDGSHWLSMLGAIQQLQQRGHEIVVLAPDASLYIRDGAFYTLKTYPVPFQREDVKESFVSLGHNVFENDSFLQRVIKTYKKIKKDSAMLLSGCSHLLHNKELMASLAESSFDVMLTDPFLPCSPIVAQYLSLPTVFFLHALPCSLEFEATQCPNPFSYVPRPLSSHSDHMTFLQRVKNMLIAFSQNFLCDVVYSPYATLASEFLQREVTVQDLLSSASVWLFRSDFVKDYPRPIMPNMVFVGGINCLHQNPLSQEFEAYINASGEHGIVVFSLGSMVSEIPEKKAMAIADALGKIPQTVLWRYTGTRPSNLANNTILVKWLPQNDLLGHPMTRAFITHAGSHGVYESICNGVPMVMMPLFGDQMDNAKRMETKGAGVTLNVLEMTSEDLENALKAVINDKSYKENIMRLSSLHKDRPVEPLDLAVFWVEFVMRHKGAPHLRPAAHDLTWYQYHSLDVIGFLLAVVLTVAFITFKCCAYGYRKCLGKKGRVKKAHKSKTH
TEST METHOD NOTES: UGT1A1 inhibition assay in living HeLa-UGT1A1 cells (NHPN-O-glucuronidation, LC-FD)
Type: cell-based
Set-up: expressed in transfected cells; host or cells: HeLa cells, stably transduced with lentivirus (HeLa-UGT1A1)
RECORDED CONDITIONS: hUGT1A1-catalyzed NHPN-O-glucuronidation in HeLa-UGT1A1 cells; read-out: IC50
Experimental: A RF-20A FD detector coupled UFLC system (Shimadzu, Kyoto, Japan), equipped with a DGU-20A5R vacuum degasser, two LC-20ADXR pumps, a SIL-20ACXR autosampler and a CTO-20A column oven, was used to quantify NHPN and NHPNG. Chromatographic separation of analytes was carried out on a shim-pack Acchrom HC-C18 analytical column (2.0 × 150 mm, 4.6 μm particle size), while the column temperature was kept at 40°C. The flow rate was kept at 0.5 ml/min. […]
pIC50: −log10 of the molar value.
MEASURED METRIC: pIC50

structure_smiles=O=c1c(O)c(-c2ccc(O)cc2)oc2cc(O)cc(O)c12 assay_value=5.86
structure_smiles=O=c1cc(-c2ccc(O)c(O)c2)oc2cc(O)cc(O)c12 assay_value=5.85
structure_smiles=COc1cc(O)c2c(=O)cc(-c3ccc(O)cc3)oc2c1 assay_value=5.82
